SYSTEM: hERG K channel (Homo sapiens)
Construct: host or cells: CHO
Sequence (Q12809 whole entry): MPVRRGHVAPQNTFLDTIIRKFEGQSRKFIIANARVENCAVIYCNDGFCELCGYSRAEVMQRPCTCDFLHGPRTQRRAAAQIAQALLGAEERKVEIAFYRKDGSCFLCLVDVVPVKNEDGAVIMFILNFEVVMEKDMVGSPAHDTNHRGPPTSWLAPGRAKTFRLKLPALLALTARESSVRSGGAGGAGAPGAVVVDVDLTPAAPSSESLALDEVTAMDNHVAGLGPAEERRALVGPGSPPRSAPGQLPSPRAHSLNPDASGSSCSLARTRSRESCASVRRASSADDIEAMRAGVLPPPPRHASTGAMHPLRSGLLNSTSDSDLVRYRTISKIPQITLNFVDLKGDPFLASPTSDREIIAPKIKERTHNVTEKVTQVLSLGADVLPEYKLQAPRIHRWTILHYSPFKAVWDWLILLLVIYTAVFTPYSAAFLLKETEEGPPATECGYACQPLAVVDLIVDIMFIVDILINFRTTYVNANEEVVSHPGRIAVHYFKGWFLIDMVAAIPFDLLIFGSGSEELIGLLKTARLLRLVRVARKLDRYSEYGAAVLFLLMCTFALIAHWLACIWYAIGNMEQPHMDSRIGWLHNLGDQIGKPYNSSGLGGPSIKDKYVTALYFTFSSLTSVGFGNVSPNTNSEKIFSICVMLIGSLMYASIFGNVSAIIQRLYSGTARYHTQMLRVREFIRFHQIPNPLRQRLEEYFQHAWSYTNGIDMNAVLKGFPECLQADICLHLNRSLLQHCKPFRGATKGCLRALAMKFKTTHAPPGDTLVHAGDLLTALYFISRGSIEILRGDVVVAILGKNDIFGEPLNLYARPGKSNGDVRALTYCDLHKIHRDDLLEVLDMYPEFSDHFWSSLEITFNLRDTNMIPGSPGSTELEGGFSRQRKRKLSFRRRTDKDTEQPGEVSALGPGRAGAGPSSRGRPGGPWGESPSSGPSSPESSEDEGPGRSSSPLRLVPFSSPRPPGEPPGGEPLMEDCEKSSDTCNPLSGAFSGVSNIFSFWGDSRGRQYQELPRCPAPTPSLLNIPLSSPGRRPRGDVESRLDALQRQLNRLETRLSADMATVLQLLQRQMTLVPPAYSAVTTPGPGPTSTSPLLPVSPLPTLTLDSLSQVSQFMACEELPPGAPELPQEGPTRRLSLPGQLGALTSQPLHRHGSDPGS
METHOD DESCRIPTION: hERG Q-Patch assay
Type: cell-based
COND: concentration 300 nM; CHO cells expressing hERG; K+ tail current 3 min after application; mean of two or three experiments
Description: B) hERG Q-Patch assay: Compounds are evaluated for block of the hERG K channel using CHO cells stably expressing the hERG gene (accession number U04270, bSys, Witterswil. Switzerland) and the Patch robotic platform (Sophion, Ballerup, Denmark) in single-cell mode at room temperature. […] K^+ currents are measured with the patch-voltage-clamp technique in the whole-cell configuration with the internal solution (in […]: KCl, 140; NaCl, 10; MgCl2, 1; HEPES, 10; EGTA, 5; pH=7.2 with KOH). […]
PARAMETER MEASURED: % block (%)
# output: bare number, implied unit %

Asked: Field: % block (hERG K channel (Homo sapiens)). Entry: COc1ccc(-c2nc(C(F)(F)F)sc2N2CCN(C(=O)Cn3nc(C)nc3C)[C@H](C)C2)cn1
Given back: 4

Asked: Okay, and Cc1nc(C)n(CC(=O)N2CCN(c3sc(C(F)(F)F)nc3-c3ccc(OCC(F)(F)F)cc3)C[C@H]2C)n1 ?
Given back: 25

Asked: Follow-up entry: Cc1nc(C)n(CC(=O)N2CCN(c3sc(C(F)(F)F)nc3-c3ccc4c(c3)CCCO4)C[C@H]2C)n1
Given back: 1

Asked: Now try Cc1nc(C)n(CC(=O)N2CCN(c3sc(C(F)(F)F)nc3-c3ccc4c(c3)OCO4)C[C@H]2C)n1 .
Given back: 9

Asked: Let us now turn to Cc1nc(C)n(CC(=O)N2CCN(c3sc(C(F)(F)F)nc3-c3ccc(OC(F)(F)F)cc3)C[C@H]2C)n1
Given back: 19

Asked: Also Cc1nc(C)n(CC(=O)N2CCN(c3sc(C(F)(F)F)nc3-c3cnc(N4CCCC4)nc3)C[C@H]2C)n1 , if possible.
Given back: 7

----------
SYSTEM: hERG K channel (Homo sapiens)
Construct: host or cells: CHO
METHOD DESCRIPTION: hERG Q-Patch assay
Format: cell-based
COND: concentration 3000 nM; CHO cells expressing hERG; K+ tail current 3 min after application; mean of two or three experiments
Collected % block values appear next to each entry.
Number only, in %; omit the unit.

Asked: Provide the documented % block with hERG K channel (Homo sapiens) as the system for COc1ccc(-c2nc(C(F)(F)F)sc2N2CCN(C(=O)Cn3nc(C)nc3C)[C@H](C)C2)cc1
Given back: 13

Asked: Further, for CCOc1ncc(-c2nc(C(F)(F)F)sc2N2CCN(C(=O)Cn3nc(C)nc3C)[C@H](C)C2)cn1 ?
Given back: 20

Asked: And for COc1ccc(-c2nc(C(F)(F)F)sc2N2CCN(C(=O)Cn3nc(C)nc3C)[C@H](C)C2)cc1F ?
Given back: 20

Asked: Another compound: Cc1nc(C)n(CC(=O)N2CCN(c3sc(C(F)(F)F)nc3-c3ccc(OC(F)(F)F)cc3)C[C@H]2C)n1
Given back: 60

Asked: Now this one: CCOc1ncc(-c2nc(C(F)(F)F)sc2N2CCN(C(=O)Cn3nc(C)nc3C)[C@H](C)C2)c(OCC)n1
Given back: 0

----------
Listed molecules paired with reported pIC50
SYSTEM: human CXCR3A (Homo sapiens)
Sequence (P49682 whole entry): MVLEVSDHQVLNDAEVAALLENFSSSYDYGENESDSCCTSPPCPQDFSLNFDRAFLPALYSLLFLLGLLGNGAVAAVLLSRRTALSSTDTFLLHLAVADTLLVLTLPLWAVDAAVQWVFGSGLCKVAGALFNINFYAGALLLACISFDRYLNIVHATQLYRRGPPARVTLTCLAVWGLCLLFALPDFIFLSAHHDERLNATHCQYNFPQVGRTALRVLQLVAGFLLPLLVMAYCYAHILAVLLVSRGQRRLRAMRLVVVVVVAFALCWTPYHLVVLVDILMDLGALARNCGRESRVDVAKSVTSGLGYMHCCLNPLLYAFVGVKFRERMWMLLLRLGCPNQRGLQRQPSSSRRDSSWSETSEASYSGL
METHOD DESCRIPTION: FLIPR assay (CXCL10-induced calcium signal in CHO-K1 cells)
COND: CHO-K1 cells expressing human CXCR3A coupled to Galpha(16); CXCL10 agonist 20 nM; mean values
Friendly reminder that pIC50 comes from taking -log10 of the concentration in mol/L.

[[record]]
molecule = "Cc1nc(C)n(CC(=O)N2CCN(c3sc(C(F)(F)F)nc3-c3cnc(OCC(F)(F)F)nc3)C[C@H]2C)n1"
system = "human CXCR3A (Homo sapiens)"
parameter_measured = "pIC50"
value = 8.55


Asked: # pIC50 lookup, item Cc1nc(C)n(CC(=O)N2CCN(c3sc(C(F)(F)F)nc3-c3ccc(OCC(F)(F)F)cc3)C[C@H]2C)n1
Given back: 7.92

Asked: Also Cc1nc(C)n(CC(=O)N2CCN(c3sc(C(F)(F)F)nc3-c3ccc4c(c3)OCO4)C[C@H]2C)n1 ?
Given back: 7.12

Asked: Again, but for CCOc1ccc(-c2nc(C(F)(F)F)sc2N2CCN(C(=O)Cn3nc(C)nc3C)[C@H](C)C2)cn1
Given back: 8.04

Values from patent US10259807B2
